PROCEDURE SUMMARY: Oral bioavailability in rat at 10 mg/kg
Format: ADME, organism-based
CONDITIONS: in vivo
Provide the recorded bioavailability for the entries that follow.
Write it as a number; the unit % goes unstated.

Name the recorded bioavailability for `COc1cc2nnc(C(N)=O)c(Nc3ccc(C)cc3F)c2cc1C1CCN(CCO)CC1` . 100

Name the recorded bioavailability for `COc1cc2nnc(C(N)=O)c(Nc3ccc(C)cc3F)c2cc1N1CCC(OC)CC1` . 21

Name the recorded bioavailability for `COc1cc2nnc(C(N)=O)c(Nc3ccc(C)cc3F)c2cc1N1CCN(C)CC1` . 100

Name the recorded bioavailability for `COc1cc2nnc(C(N)=O)c(Nc3ccc(C)cc3F)c2cc1N1CCN(C(=O)[C@@H](C)O)CC1` . 53

Name the recorded bioavailability for `COc1cc2nnc(C(N)=O)c(Nc3ccc(C)cc3F)c2cc1N1CCN(S(C)(=O)=O)CC1` . 3

Name the recorded bioavailability for `COCCN1CCN(c2cc3c(Nc4ccc(C)cc4F)c(C(N)=O)nnc3cc2OC)CC1` . 3

Name the recorded bioavailability for `COc1cc2nnc(C(N)=O)c(Nc3ccc(C)cc3F)c2cc1N1CCC(N(C)C)CC1` . 15

Name the recorded bioavailability for `COc1cc2nnc(C(N)=O)c(Nc3ccc(C)cc3F)c2cc1N1C[C@@H](C)N[C@@H](C)C1` . 61

Name the recorded bioavailability for `COc1cc2nnc(C(N)=O)c(Nc3ccc(C)cc3F)c2cc1N1CCCN(CCO)CC1` . 4

###

PROCEDURE SUMMARY: Half life in rat at 10 mg/kg, po and 3 mg/kg, iv
Format: ADME, organism-based
CONDITIONS: in vivo
MEASURED METRIC: half-life
Lab note: write values as number then unit, every time.

Name the recorded half-life for `COCCN1CCN(c2cc3c(Nc4ccc(C)cc4F)c(C(N)=O)nnc3cc2OC)CC1` . 7.6 h

Name the recorded half-life for `COc1cc2nnc(C(N)=O)c(Nc3ccc(C)cc3F)c2cc1N1CCC(N(C)C)CC1` . 0.9 h

Name the recorded half-life for `COc1cc2nnc(C(N)=O)c(Nc3ccc(C)cc3F)c2cc1N1CCN(C(=O)[C@@H](C)O)CC1` . 0.9 h

Name the recorded half-life for `COc1cc2nnc(C(N)=O)c(Nc3ccc(C)cc3F)c2cc1N1CCOCC1` . 0.5 h

Name the recorded half-life for `COc1cc2nnc(C(N)=O)c(Nc3ccc(C)cc3F)c2cc1N1CCN(CCO)CC1` . 3.1 h

Name the recorded half-life for `COc1cc2nnc(C(N)=O)c(Nc3ccc(C)cc3F)c2cc1N1C[C@@H](C)N[C@@H](C)C1` . 4.4 h

Name the recorded half-life for `COc1cc2nnc(C(N)=O)c(Nc3ccc(C)cc3F)c2cc1C1CCN(CCO)CC1` . 6.1 h

Name the recorded half-life for `COc1cc2nnc(C(N)=O)c(Nc3ccc(C)cc3F)c2cc1N1CCN(S(C)(=O)=O)CC1` . 1.5 h

Name the recorded half-life for `COc1cc2nnc(C(N)=O)c(Nc3ccc(C)cc3F)c2cc1N1CCN(C)CC1` . 5.7 h

###

Provide the recorded CL/F for the entries that follow.
PROCEDURE SUMMARY: Clearance in rat at 10 mg/kg, po
Assay type: ADME, organism-based
Design: dose 10 mg/kg, route oral
CONDITIONS: in vivo
Write it as a number; the unit mL/min/kg goes unstated.

Name the recorded CL/F for `COc1cc2nnc(C(N)=O)c(Nc3ccc(C)cc3F)c2cc1N1CCN(C)CC1` . 12

Name the recorded CL/F for `COc1cc2nnc(C(N)=O)c(Nc3ccc(C)cc3F)c2cc1N1CCC(OC)CC1` . 58

Name the recorded CL/F for `COc1cc2nnc(C(N)=O)c(Nc3ccc(C)cc3F)c2cc1N1CCC(N(C)C)CC1` . 34

Name the recorded CL/F for `COCCN1CCN(c2cc3c(Nc4ccc(C)cc4F)c(C(N)=O)nnc3cc2OC)CC1` . 21

###

PROCEDURE SUMMARY: Volume of distribution at steady state in rat at 10 mg/kg, po and 3 mg/kg, iv
Format: ADME, organism-based
CONDITIONS: in vivo, read-out: Vdss
Each record's class is read off its Vd using these ranges: lower range = under 2 L/kg, middle range = from 2 L/kg up to 3 L/kg, upper range = 3 L/kg and over

Kindly state the category for this compound: `COCCN1CCN(c2cc3c(Nc4ccc(C)cc4F)c(C(N)=O)nnc3cc2OC)CC1` upper range

Kindly state the category for this compound: `COc1cc2nnc(C(N)=O)c(Nc3ccc(C)cc3F)c2cc1C1CCN(C(C)C)CC1` middle range

Kindly state the category for this compound: `COc1cc2nnc(C(N)=O)c(Nc3ccc(C)cc3F)c2cc1C1CCN(CCO)CC1` upper range

Kindly state the category for this compound: `COc1cc2nnc(C(N)=O)c(Nc3ccc(C)cc3F)c2cc1N1CCC(N(C)C)CC1` middle range

Kindly state the category for this compound: `COc1cc2nnc(C(N)=O)c(Nc3ccc(C)cc3F)c2cc1N1CCN(C(=O)[C@@H](C)O)CC1` lower range

Kindly state the category for this compound: `COc1cc2nnc(C(N)=O)c(Nc3ccc(C)cc3F)c2cc1N1CCOCC1` lower range

Kindly state the category for this compound: `COc1cc2nnc(C(N)=O)c(Nc3ccc(C)cc3F)c2cc1N1CCCN(CCO)CC1` middle range

Kindly state the category for this compound: `COc1cc2nnc(C(N)=O)c(Nc3ccc(C)cc3F)c2cc1N1CCN(CCO)CC1` middle range

Kindly state the category for this compound: `COc1cc2nnc(C(N)=O)c(Nc3ccc(C)cc3F)c2cc1N1C[C@@H](C)N[C@@H](C)C1` lower range

Kindly state the category for this compound: `COc1cc2nnc(C(N)=O)c(Nc3ccc(C)cc3F)c2cc1N1CCN(C(C)C)CC1` upper range

Kindly state the category for this compound: `COc1cc2nnc(C(N)=O)c(Nc3ccc(C)cc3F)c2cc1N1CCN(C)CC1` upper range

Kindly state the category for this compound: `COc1cc2nnc(C(N)=O)c(Nc3ccc(C)cc3F)c2cc1N1CCC(OC)CC1` lower range

Kindly state the category for this compound: `COc1cc2nnc(C(N)=O)c(Nc3ccc(C)cc3F)c2cc1N1CCN(S(C)(=O)=O)CC1` lower range

###

PROCEDURE SUMMARY: Oral bioavailability in rat at 10 mg/kg
Assay type: ADME, organism-based
CONDITIONS: in vivo
MEASURED METRIC: bioavailability (%)
Write it as a number; the unit % goes unstated.

Name the recorded bioavailability for `COc1cc2nnc(C(N)=O)c(Nc3ccc(C)cc3F)c2cc1N1CCN(CCO)CC1` . 42

Name the recorded bioavailability for `COc1cc2nnc(C(N)=O)c(Nc3ccc(C)cc3F)c2cc1N1CCOCC1` . 25

Name the recorded bioavailability for `COc1cc2nnc(C(N)=O)c(Nc3ccc(C)cc3F)c2cc1N1CCN(C(C)C)CC1` . 100

Name the recorded bioavailability for `COc1cc2nnc(C(N)=O)c(Nc3ccc(C)cc3F)c2cc1C1CCN(C(C)C)CC1` . 100

###

PROCEDURE SUMMARY: Clearance in rat at 10 mg/kg, po
Assay type: ADME, organism-based
Parameters: dose 10 mg/kg, route oral
CONDITIONS: in vivo
Lab note: compare CL/F with 8 mL/min/kg, writing true (1) if less and false (0) if equal or more.

For `COc1cc2nnc(C(N)=O)c(Nc3ccc(C)cc3F)c2cc1N1CCN(C(=O)[C@@H](C)O)CC1` , is the recorded CL/F below the cut-off of 8 mL/min/kg? false (0)

For `COc1cc2nnc(C(N)=O)c(Nc3ccc(C)cc3F)c2cc1N1C[C@@H](C)N[C@@H](C)C1` , is the recorded CL/F below the cut-off of 8 mL/min/kg? true (1)

For `COc1cc2nnc(C(N)=O)c(Nc3ccc(C)cc3F)c2cc1N1CCN(C(C)C)CC1` , is the recorded CL/F below the cut-off of 8 mL/min/kg? false (0)

For `COc1cc2nnc(C(N)=O)c(Nc3ccc(C)cc3F)c2cc1C1CCN(C(C)C)CC1` , is the recorded CL/F below the cut-off of 8 mL/min/kg? false (0)

For `COc1cc2nnc(C(N)=O)c(Nc3ccc(C)cc3F)c2cc1N1CCN(S(C)(=O)=O)CC1` , is the recorded CL/F below the cut-off of 8 mL/min/kg? false (0)

For `COc1cc2nnc(C(N)=O)c(Nc3ccc(C)cc3F)c2cc1N1CCOCC1` , is the recorded CL/F below the cut-off of 8 mL/min/kg? false (0)

For `COc1cc2nnc(C(N)=O)c(Nc3ccc(C)cc3F)c2cc1N1CCN(CCO)CC1` , is the recorded CL/F below the cut-off of 8 mL/min/kg? true (1)

For `COc1cc2nnc(C(N)=O)c(Nc3ccc(C)cc3F)c2cc1N1CCCN(CCO)CC1` , is the recorded CL/F below the cut-off of 8 mL/min/kg? false (0)

Where do the numbers come from? From ChEMBL document CHEMBL2406904.
